# TESTED_TARGET: T1, monkey CTLA-4, full length, on transfected HEK293 cells (monkey)
# T1 construct: whole, on cells; also called cCTLA-4; HEK293-cCTLA-4
# ASSAY: FACS, 293F-cCTLA-4 cells
OUTCOME_MEASURE: MFI at 0.064 nM
Just the number, please, no unit after it.

Read off the recorded MFI at 0.064 nM for 97A8D1 (chimeric antibody purified from hybridoma supernatant) (antibody, V domains shown, also called mAb49; mAb049) VH: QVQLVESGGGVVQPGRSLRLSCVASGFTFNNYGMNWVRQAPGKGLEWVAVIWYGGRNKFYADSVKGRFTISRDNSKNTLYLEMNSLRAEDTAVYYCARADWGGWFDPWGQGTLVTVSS VL: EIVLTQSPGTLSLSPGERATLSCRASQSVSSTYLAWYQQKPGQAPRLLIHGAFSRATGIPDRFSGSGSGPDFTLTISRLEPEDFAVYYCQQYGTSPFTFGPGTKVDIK
67.2

Read off the recorded MFI at 0.064 nM for 92C8B6 (chimeric antibody purified from hybridoma supernatant) (antibody, V domains shown, also called mAb42; mAb042) VH: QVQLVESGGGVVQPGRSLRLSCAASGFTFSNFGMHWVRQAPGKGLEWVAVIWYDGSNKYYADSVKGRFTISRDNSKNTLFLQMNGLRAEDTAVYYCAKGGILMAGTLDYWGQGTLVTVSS VL: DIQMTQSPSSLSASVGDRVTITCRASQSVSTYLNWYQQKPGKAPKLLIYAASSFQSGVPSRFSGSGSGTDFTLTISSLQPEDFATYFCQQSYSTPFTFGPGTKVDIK
67.7

Read off the recorded MFI at 0.064 nM for 40C4C6 (chimeric antibody purified from hybridoma supernatant) (antibody, V domains shown, also called mAb09; mAb009) VH: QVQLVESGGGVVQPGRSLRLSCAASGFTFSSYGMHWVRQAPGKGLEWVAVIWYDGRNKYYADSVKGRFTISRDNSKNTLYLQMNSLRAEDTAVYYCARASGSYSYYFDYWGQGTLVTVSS VL: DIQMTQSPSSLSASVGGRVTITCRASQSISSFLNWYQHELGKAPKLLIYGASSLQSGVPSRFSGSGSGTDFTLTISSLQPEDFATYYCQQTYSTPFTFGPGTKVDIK
68.6

Read off the recorded MFI at 0.064 nM for 31C12F3 (chimeric antibody purified from hybridoma supernatant) (antibody, V domains shown, also called mAb010) VH: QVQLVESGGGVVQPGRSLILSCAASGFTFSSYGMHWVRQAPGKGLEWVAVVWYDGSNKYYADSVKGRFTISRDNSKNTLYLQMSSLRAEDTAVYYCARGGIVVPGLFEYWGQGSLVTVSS VL: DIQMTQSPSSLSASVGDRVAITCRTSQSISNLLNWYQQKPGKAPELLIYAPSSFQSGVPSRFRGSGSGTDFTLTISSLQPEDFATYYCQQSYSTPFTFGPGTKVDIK
97.7

Each recorded value in this set is attributed to patent US20210324080A1.
